Experiment: qHTS assay for small molecule agonists of the antioxidant response element (ARE) signaling pathway measured by Nrf2-dependant transcriptional activity - cell viability counter screen (AID 720653); further: on the % scale 0 is the no-effect control and ±100 the full control effect
Details: ARE-bla HepG2 viability, CellTiter-Glo ATP luminescence, 16 h; stronger effect = lower value
Inconclusive results are not listed.
observedProperty: max response (%)
Give just the numeric value; % need not be written.

// max response lookup, molecule = CC(C)(C)OCC1CO1 (stereo not given) , result: 11

// max response lookup, molecule = Nc1nc(CC(=O)O)cs1 , result: 4.24

// max response lookup, molecule = Cc1ccccc1C#N , result: -8.58

// max response lookup, molecule = O=[N+]([O-])c1ccccc1CCO , result: -3.69

// max response lookup, molecule = CCCCC(CC)COCC1CO1 (stereo not given) , result: -19

// max response lookup, molecule = Cc1cc(C)cc(O)c1 , result: -0.981

// max response lookup, molecule = CCCCOCCOCCOCCCC , result: 10.5

// max response lookup, molecule = c1ccsc1 , result: 9

// max response lookup, molecule = C/C=C(/C)C#N , result: -5.17

// max response lookup, molecule = CCC(C)=O , result: -4.32

// max response lookup, molecule = O=C(O)c1ccc(CO)o1 , result: -10.4

// max response lookup, molecule = Oc1c(Cl)ccc(Cl)c1Cl , result: 0.617

// max response lookup, molecule = C=C(C)C(=O)OC , result: 4.29

// max response lookup, molecule = CCN(CC)c1cccc(O)c1 , result: 5.34

// max response lookup, molecule = Cc1ccc(C)c(N)c1 , result: 0.0142

// max response lookup, molecule = CCCCCCC=O , result: 14.6

// max response lookup, molecule = CC(=O)Nc1ccccc1C , result: -6.99

// max response lookup, molecule = Cc1ccc(C(=O)O)cc1 , result: 8.21

// max response lookup, molecule = CCCCCCC(=O)O , result: -2.08

// max response lookup, molecule = O=C(O[C@@H](C(=O)O)[C@@H](OC(=O)c1ccccc1)C(=O)O)c1ccccc1 , result: -4.37

// max response lookup, molecule = Cc1ccccc1C(=O)O , result: 0.515

// max response lookup, molecule = NC(=O)c1ccccc1[N+](=O)[O-] , result: -0.414

// max response lookup, molecule = Nc1ccc(F)cc1F , result: -3.09

// max response lookup, molecule = NC(N)=S , result: -0.0983

// max response lookup, molecule = CC1CCCO1 (stereo not given) , result: -3.62

// max response lookup, molecule = Cc1ccc(C)cc1 , result: -7.71

// max response lookup, molecule = CCCCC(C=O)CC (stereo not given) , result: 4.13

// max response lookup, molecule = CCCOCC(C)OCC(C)O (stereo not given) , result: -10.5

// max response lookup, molecule = O=c1[nH][nH]c(=O)c2cc([N+](=O)[O-])ccc12 , result: 5.62

// max response lookup, molecule = CC(C)(c1cc(Br)c(OCC(Br)CBr)c(Br)c1)c1cc(Br)c(OCC(Br)CBr)c(Br)c1 (stereo not given) , result: -4.49

// max response lookup, molecule = Nc1cccc(N)c1 , result: -7.64

// max response lookup, molecule = N#CCc1ccccc1[N+](=O)[O-] , result: 3.79

// max response lookup, molecule = Cc1ccc(C)o1 , result: -12.8

// max response lookup, molecule = CC(=O)OCCC(C)C , result: -11

// max response lookup, molecule = O=[N+]([O-])c1ccc(CCO)cc1 , result: -24.2

* * *

Assay: qHTS assay for cell viability of HEK293 cells (AID 743288); further: on the % scale 0 is the no-effect control and ±100 the full control effect; nearly all actives have a fitted effect of over 50% in size
Settings: ATP luminescence (CellTiter-Glo), 18 h, stronger effect = lower value
Results filed as inconclusive are left out.
Please respond with reported max response for every item in the list.
Give just the numeric value; % need not be written.

// max response lookup, compound = CC(C)CO , result: 4.23

// max response lookup, compound = C/C(C=O)=C/c1ccccc1 , result: 5.25

// max response lookup, compound = C1CCCC1 , result: 0.668

// max response lookup, compound = CCOc1cc(OCC)c(C(C)=O)cc1OCC , result: 0.327

// max response lookup, compound = CCCCCCCCC , result: 9.61

// max response lookup, compound = Cc1cccc([N+](=O)[O-])c1C(=O)O , result: -0.404

// max response lookup, compound = O=c1[nH][nH]c(=O)c2cc([N+](=O)[O-])ccc12 , result: -7.38

// max response lookup, compound = C=C(C)C(=O)OC , result: 0.0882

// max response lookup, compound = O=C(O)c1ccc(Cl)cc1Cl , result: 4.16

// max response lookup, compound = CCCCC/C=C/C=C/C=O , result: -1.02

// max response lookup, compound = O=[N+]([O-])c1ccc2nc[nH]c2c1 , result: 3.84

// max response lookup, compound = NC(N)=S , result: -3.49

// max response lookup, compound = CC(C)N=C=NC(C)C , result: 3.11

// max response lookup, compound = NC(=O)/N=N/C(N)=O , result: 1.54

// max response lookup, compound = CC(=C/C=C/C(C)=C/C=C/C=C(C)/C=C/C=C(C)/C=C/C(=O)O)/C=C/C(=O)O , result: -2.36

// max response lookup, compound = CCCCCCC=O , result: 5.62

// max response lookup, compound = C=CC(=O)OCCCC , result: -0.0822

// max response lookup, compound = NC(=O)c1cccc([N+](=O)[O-])c1 , result: -1.82

// max response lookup, compound = Cc1ccccc1C=O , result: 5.96

// max response lookup, compound = CC(=O)Nc1ccc(C)cc1 , result: -2.69

// max response lookup, compound = COC(=O)CCC(=O)OC , result: 2.75

// max response lookup, compound = O=[N+]([O-])c1cccc(C(F)(F)F)c1 , result: 0.368

// max response lookup, compound = Cc1ccc(C)c(N)c1 , result: -4.96

// max response lookup, compound = CCC(=O)/C=C/C1C(C)=CCCC1(C)C (configuration not stated) , result: 0.395

// max response lookup, compound = NC(=O)CCCCC(N)=O , result: 10.2

// max response lookup, compound = Nc1ccc([N+](=O)[O-])c(N)c1 , result: 8.4

// max response lookup, compound = Cc1cccc(C)c1 , result: 7.2

// max response lookup, compound = O=C(O)c1cc(Cl)cc(Cl)c1 , result: 9.31

// max response lookup, compound = C=C(C)C(=O)OCC(C)C , result: 2.75

// max response lookup, compound = CC1(N)CCC(C(C)(C)N)CC1 (configuration not stated) , result: 3.33

// max response lookup, compound = CC/C=C/C#N , result: 5.67

// max response lookup, compound = O=C(O)c1c(Cl)cccc1Cl , result: -0.226

* * *

Assay: MultiTox-Fluor Cytotoxicity Assay - LYMP1-001 - Live Cells (AID 947);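 further: 0% = DMSO only and full inhibition = tetraoctylammonium bromide control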
Settings: LYMP1-001 lymphoblastoid cells, live-cell protease fluorescence viability; series mostly up to 92.2 µM
Results filed as inconclusive are left out. Activity calls are given as the source filed them. Calls follow the shape of the dose curve; as a rule, active = well fitted cell-killing curve with a large enough effect; inconclusive = small, poorly fitted or top-dose-only effect; inactive = flat fitted curve, though single readings scatter.
observedProperty: outcome

Answered cases to consult:
[
  {
    "molecule": "CC1CCC2CC1C2(C)C (stereo not drawn)",
    "outcome": "inactive"
  },
  {
    "molecule": "CCNc1cc(O)ccc1C",
    "outcome": "inactive"
  },
  {
    "molecule": "Cc1cccc2cccnc12",
    "outcome": "inactive"
  },
  {
    "molecule": "CC=O",
    "outcome": "inactive"
  },
  {
    "molecule": "CC/C(C)=N/O",
    "outcome": "inactive"
  }
]

// outcome lookup, molecule = Nc1cc(Cl)c([N+](=O)[O-])cc1O , result: inactive

// outcome lookup, molecule = Cc1cccc(C(=O)O)c1[N+](=O)[O-] , result: inactive

* * *

Assay: MultiTox-Fluor Cytotoxicity Assay - LYMP1-002 - Live Cells (AID 955);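 further: cells exposed to compound for 16 hours; on the % scale 0 is the no-effect control and ±100 the full control effect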
Settings: LYMP1-002 lymphoblastoid live-cell protease fluorescence viability; series mostly up to 46.1 µM
Records with an inconclusive call do not appear. The source made the active and inactive calls. Calls come from the whole dose curve; as a rule, active = well fitted cell-killing curve with a large enough effect; inconclusive = small, poorly fitted or top-dose-only effect, or effect the other way; inactive = flat fitted curve, though single readings scatter.
observedProperty: outcome

Answered cases to consult:
[
  {
    "compound": "CC(=O)CC(C)C",
    "outcome": "inactive"
  },
  {
    "compound": "C=CC(=O)NC(C)C",
    "outcome": "inactive"
  },
  {
    "compound": "Oc1cccc(Nc2ccccc2)c1",
    "outcome": "inactive"
  },
  {
    "compound": "CCCCCO",
    "outcome": "inactive"
  },
  {
    "compound": "O=C(O)c1cc(Cl)cc(Cl)c1",
    "outcome": "inactive"
  },
  {
    "compound": "O=Cc1ccc(CO)o1",
    "outcome": "inactive"
  }
]

// outcome lookup, compound = CCCCCNCCCCC , result: inactive

// outcome lookup, compound = CC(=O)Nc1ccc(C)cc1 , result: inactive

// outcome lookup, compound = CCC(O)C(C)(C)C (centres undefined) , result: inactive
